The origin of these recorded values is PubChem BioAssay (NCI).

Parameter: growth inhibition. Scope: all listed entries.
- assay.procedure: NCI Yeast Anticancer Drug Screen. Data for the rad50 strain (AID 155);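 also: 0% = growth of vehicle-only cultures of the same strain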
- details: S. cerevisiae rad50 strain growth inhibition; at 50.0 µM; hits give high values
Compounds without any hit were thinned out: in the full panel of roughly 79,000, 15% have a hit.
Provide only the numeric value, understood in %.

Before answering, review these 3 worked examples.
- molecule: "OC(Cc1ccccc1)c1ccccc1 (centres undefined)"
  growth inhibition [%]: -21.9
- molecule: "COC(=O)CCC(=O)CC(=O)C(=O)Nc1c(Cl)cc([N+](=O)[O-])cc1Cl"
  growth inhibition [%]: 11.4
- molecule: "Nc1nc(SCc2ccccc2)c2ncn(C3CC(O)C(CO)O3)c2n1 (centres undefined)"
  growth inhibition [%]: 0.05

Task: Need growth inhibition of C[C@@H]1C(=O)OCC2=C3C[C@@H](CC[C@@]3(C)C=CC2=O)[C@H](C)C(=O)OCC2=C3C[C@H]1CC[C@@]3(C)C=CC2=O , thanks.
Output: 4.3

Task: And the next one, O=C1/C(=C/c2ccccc2)CCc2ccc([N+](=O)[O-])cc21 ?
Output: -2.9

Task: And the next one, O=C1CSC(c2cccs2)N1c1nncs1 (centres undefined) ?
Output: 27.4

Task: And the next one, C[C@H]1CC[C@@H](C(C)(C)O)CC2=C1CC[C@@H]2C ?
Output: -0.2

Task: And the next one, COc1ccc(C2CC(=O)N(c3ncccc3C)C(=O)C2)cc1 ?
Output: -1

Task: And the next one, OC1CSCCCSCC(O)CSCCCSC1 (centres undefined) ?
Output: 1.7

Task: And the next one, COc1cccc(OC(=O)Nc2cccc(Cl)c2)c1 ?
Output: 38.2

Task: And the next one, NC(=O)Cc1ccncc1 ?
Output: 5.95

Task: And the next one, O=Cc1ccc(C(=O)O)cc1 ?
Output: -1.35

Task: And the next one, Cc1nc2ccccc2c(Br)c1Br ?
Output: 14.5

Task: And the next one, O=[N+]([O-])c1cccc(N=Nc2ccccc2)c1 ?
Output: -4.25

Task: And the next one, CC1(C)C(=O)/C=C\C(=O)C(C)(C)C(=O)/C=C\C(=O)C(C)(C)C(=O)/C=C\C(=O)C(C)(C)C(=O)/C=C\C1=O ?
Output: 12.1

Task: And the next one, O=C(NI1OC(=O)c2ccccc21)c1ccc(Cl)cc1 ?
Output: -9

Task: And the next one, Nc1nnc2nc(CC(=O)c3ccccc3)c(CC(=O)c3ccccc3)nn12 ?
Output: -5.4

Task: And the next one, CC(C)OP(=O)(c1ccccc1)c1ccc2c(c1)OCCOCCOCCOCCO2 (centres undefined) ?
Output: -3.05

Task: And the next one, Cc1c(Cl)cc(C(C)(C)C)c(O)c1Cc1c(C)c(Cl)cc(C(C)(C)C)c1O ?
Output: 19.4

Task: And the next one, CC(C)OP(=O)(O)CCl ?
Output: -16.9

Task: And the next one, COc1ccc2nccc(C)c2c1 ?
Output: -13

Task: And the next one, O=C(/C=C/c1ccccc1)Oc1ccccc1 ?
Output: 3.45

Task: And the next one, COc1nc2c(c(O)cn2C2OCC(OC(C)=O)C(OC(C)=O)C2OC(C)=O)c(=O)n1C (centres undefined) ?
Output: -1.65

Task: And the next one, c1ccc2n[nH]nc2c1 ?
Output: 19.1
